Target: soluble guanylate cyclase (sGC) (Rattus norvegicus)
Construct: made in house
Sequence (P20595 whole entry): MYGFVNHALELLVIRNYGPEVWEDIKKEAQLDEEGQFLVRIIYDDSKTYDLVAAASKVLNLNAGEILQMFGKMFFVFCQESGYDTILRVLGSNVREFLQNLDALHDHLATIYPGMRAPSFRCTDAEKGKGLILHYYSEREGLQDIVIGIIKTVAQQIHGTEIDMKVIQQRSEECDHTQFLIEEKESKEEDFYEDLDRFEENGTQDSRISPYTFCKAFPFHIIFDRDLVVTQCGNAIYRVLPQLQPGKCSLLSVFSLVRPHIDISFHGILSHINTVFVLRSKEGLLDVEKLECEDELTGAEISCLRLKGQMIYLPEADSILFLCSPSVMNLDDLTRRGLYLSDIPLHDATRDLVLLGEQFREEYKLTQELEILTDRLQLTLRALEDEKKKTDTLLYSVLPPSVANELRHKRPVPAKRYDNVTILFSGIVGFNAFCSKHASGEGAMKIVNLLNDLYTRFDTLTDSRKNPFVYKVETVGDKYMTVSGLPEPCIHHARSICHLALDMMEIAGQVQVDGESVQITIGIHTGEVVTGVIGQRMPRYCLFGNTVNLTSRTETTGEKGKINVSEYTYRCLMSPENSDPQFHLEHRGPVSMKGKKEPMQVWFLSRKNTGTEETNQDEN
Sequence (P19686 whole entry partner): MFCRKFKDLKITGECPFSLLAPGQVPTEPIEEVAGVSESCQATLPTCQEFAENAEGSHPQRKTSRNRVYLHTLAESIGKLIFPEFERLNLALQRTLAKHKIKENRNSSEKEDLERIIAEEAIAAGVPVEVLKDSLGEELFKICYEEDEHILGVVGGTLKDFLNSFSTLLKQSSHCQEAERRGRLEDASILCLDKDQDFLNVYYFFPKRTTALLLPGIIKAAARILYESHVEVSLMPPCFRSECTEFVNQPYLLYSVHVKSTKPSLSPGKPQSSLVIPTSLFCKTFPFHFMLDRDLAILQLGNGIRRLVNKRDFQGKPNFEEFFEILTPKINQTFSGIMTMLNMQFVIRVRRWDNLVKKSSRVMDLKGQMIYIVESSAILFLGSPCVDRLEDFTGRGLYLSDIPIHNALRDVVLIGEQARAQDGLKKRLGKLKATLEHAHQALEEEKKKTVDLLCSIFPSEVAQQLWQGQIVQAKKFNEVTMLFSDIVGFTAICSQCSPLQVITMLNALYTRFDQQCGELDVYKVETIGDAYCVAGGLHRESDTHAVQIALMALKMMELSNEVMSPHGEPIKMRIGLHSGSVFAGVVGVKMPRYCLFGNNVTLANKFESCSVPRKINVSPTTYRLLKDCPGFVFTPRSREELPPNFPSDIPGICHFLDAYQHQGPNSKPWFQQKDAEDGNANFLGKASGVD
Experiment: Stimulation of sGC enzyme activity (PPi luminescence detection)
Format: biochemical
METRIC_NAME: MEC (minimum effective concentration), activating action at the sGC enzyme in vitro (nM)

COMPOUND	RECORDED_RESULT
O=C(O)CCCCN(Cc1ccc(C(=O)O)cc1)C1CCc2cccc(OCc3ccc(CCc4ccccc4)cc3)c2C1 (centres unmarked) [Example 4]	0.7
CC(C)(C)c1nc(COc2cccc3c2CC(N(CCCCC(=O)O)Cc2ccc(C(=O)O)cc2)CC3)no1 (centres unmarked) [Example 12]	205
CC(C)(C)c1ccc(COc2cccc3c2CC(N(CCCCC(=O)O)Cc2ccc(C(=O)O)cc2)CC3)cc1 (racemic) [Example 1]	0.12
O=C(O)CCCCN(Cc1ccc(C(=O)O)cc1)C1CCc2cccc(OCc3ccc(CCc4ccccc4)cc3)c2C1 (single isomer, unassigned) [Example 5]	0.13
O=C(O)CCCCN(Cc1ccc(C(=O)O)cc1)C1CCc2cccc(OCc3cccc(F)c3)c2C1 (centres unmarked) [Example 11]	200
O=C(O)CCCCN(Cc1ccc(C(=O)O)cc1)C1CCc2cccc(OCCCN3CCOCC3=O)c2C1 (centres unmarked) [Example 9]	700
O=C(O)CCCCN(Cc1ccc(C(=O)O)cc1)C1CCc2cccc(OCCCN3CCCC3=O)c2C1 (centres unmarked) [Example 7]	830
CC(C)CCCCOc1cccc2c1CC(N(CCCCC(=O)O)Cc1ccc(C(=O)O)cc1)CC2 (centres unmarked) [Example 10]	48
